Molecular target: Human M3 receptor (Homo sapiens, UniProt P20309)
Construct: purchased Perkin Elmer
Sequence (P20309 whole entry): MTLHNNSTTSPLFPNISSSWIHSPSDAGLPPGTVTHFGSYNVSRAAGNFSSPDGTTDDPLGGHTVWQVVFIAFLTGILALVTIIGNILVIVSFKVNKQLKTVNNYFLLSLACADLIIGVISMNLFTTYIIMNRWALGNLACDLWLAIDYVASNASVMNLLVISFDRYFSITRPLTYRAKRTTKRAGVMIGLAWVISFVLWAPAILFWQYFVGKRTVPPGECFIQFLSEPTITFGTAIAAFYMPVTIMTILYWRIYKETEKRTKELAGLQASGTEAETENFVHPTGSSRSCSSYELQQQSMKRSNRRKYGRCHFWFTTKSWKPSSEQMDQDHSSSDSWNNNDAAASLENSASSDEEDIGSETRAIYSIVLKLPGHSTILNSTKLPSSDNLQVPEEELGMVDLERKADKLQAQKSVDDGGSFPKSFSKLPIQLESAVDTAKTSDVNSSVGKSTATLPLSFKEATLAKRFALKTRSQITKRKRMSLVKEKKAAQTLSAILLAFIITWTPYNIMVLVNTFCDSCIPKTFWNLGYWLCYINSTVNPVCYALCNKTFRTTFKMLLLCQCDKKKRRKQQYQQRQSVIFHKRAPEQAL
Assay: M3 Receptor Radioligand Binding Assay
Settings: human M3 receptor membranes, [3H]-N-methyl scopolamine; read-out: M3 binding affinity (Ki class)
pKi: −log10 of the molar value.
MEASURE_NAME: pKi

INSERT INTO assay_data (compound, measure_name, readout_value) VALUES
  ('COc1cc(CNC(=O)c2ccc(C(=O)N3CC(C(=O)O[C@H]4CN5CCC4CC5)(c4ccccc4)C3)cc2)ccc1CNC[C@H](O)c1ccc(O)c2[nH]c(=O)ccc12 [Compound 20A]', 'pKi', '> 9.00'),
  ('O=C(c1ccc(OCc2ccc(CNC[C@H](O)c3ccc(O)c4[nH]c(=O)ccc34)cc2)cc1)N1CC(C(=O)O[C@H]2CN3CCC2CC3)(c2ccccc2)C1 [Compound 8A]', 'pKi', '> 9.00'),
  ('O=C(c1ccc(OCc2cccc(OCCCCNC[C@H](O)c3ccc(O)c4[nH]c(=O)ccc34)c2)cc1)N1CC(C(=O)O[C@H]2CN3CCC2CC3)(c2ccccc2)C1 [Compound 7A]', 'pKi', '8.00 to 9.00'),
  ('O=C(NCCCNC[C@H](O)c1ccc(O)c2[nH]c(=O)ccc12)c1ccc(COc2ccc(C(=O)N3CC(C(=O)O[C@H]4CN5CCC4CC5)(c4ccccc4)C3)cc2)cc1 [Compound 19A]', 'pKi', '> 9.00'),
  ('O=C(CCc1ccc(OCCCCCNC[C@H](O)c2ccc(O)c3[nH]c(=O)ccc23)cc1)N1CC(C(=O)O[C@H]2CN3CCC2CC3)(c2ccccc2)C1 [Compound 5A]', 'pKi', '8.00 to 9.00');

Taken from patent US9662323B2.
